- System: HCC-2998 colon
- assay_method_text: NCI tumour cell line growth inhibition, 48 h
observed_property: TGI

compound | subject_of_test | observed_property | measured_value
CC(C)CCCC(C)[C@H]1CCC2[C@@H]3CCC4Nc5c(cnn5-c5ccccc5)C[C@]4(C)C3CC[C@@]21C (some centres not stated) | HCC-2998 colon | TGI | > 100 µM
Cc1cc(N=C2C=C(Br)C(=O)C(Br)=C2)cc(CN(CC(=O)O)CC(=O)O)c1O | HCC-2998 colon | TGI | > 100 µM
CN(C)CCn1c(CO)nc2c1c(=O)n(C)c(=O)n2C | HCC-2998 colon | TGI | > 100 µM
CN1CC2=C(NC(=S)NC2c2ccccc2)/C(=C/c2ccccc2)C1 (configuration not stated) | HCC-2998 colon | TGI | > 100 µM
CC(Oc1ccccc1Cl)C(=O)NN1C(=O)CSC1c1ccccc1 (configuration not stated) | HCC-2998 colon | TGI | > 100 µM

INPUT: Recorded TGI of CC(=O)O[C@]1(C)OC(=O)[C@@H](CC(C)C)N1[N+](=O)[O-] , please.
OUTPUT: > 100 µM

INPUT: Recorded TGI of NNC(=O)C(=O)N/N=C1\CCC(=O)CC1C(=O)CCC(=O)Nc1ccc(Cl)cc1 (configuration not stated) , please.
OUTPUT: > 100 µM

INPUT: Recorded TGI of CN=C(/N=c1\ssc(=NC)n1C)N(C)C , please.
OUTPUT: > 100 µM

INPUT: Recorded TGI of Cc1ccc(S(=O)(=O)c2nc(-c3ccccc3)oc2S(C)=O)cc1 (configuration not stated) , please.
OUTPUT: 30.4 µM

INPUT: Recorded TGI of COc1ccc(/C(Cl)=C/c2cc(OC)ccc2OC)cc1 , please.
OUTPUT: > 100 µM

INPUT: Recorded TGI of Nc1ccc(S(=O)(=O)Nc2nc3ccccc3nc2N2CCCCCC2)cc1 , please.
OUTPUT: 33.4 µM

INPUT: Recorded TGI of C=CCP(=O)(CC=C)C(Cl)Cl , please.
OUTPUT: > 100 µM

INPUT: Recorded TGI of COC(=O)COc1ccc(/C=C2/N=C(c3ccccc3)N(c3c(C)n(C)n(-c4ccccc4)c3=O)C2=O)cc1 , please.
OUTPUT: 33.4 µM

INPUT: Recorded TGI of CCCC(=O)N[C@H]1C2C3CC4C5CC(C42)C1(C)C53 (some centres not stated) , please.
OUTPUT: > 100 µM

INPUT: Recorded TGI of CCOP(=O)(OCC)/C(=C/c1cccs1)CC(C)=O , please.
OUTPUT: > 100 µM

INPUT: Recorded TGI of COc1cc(C2C3=C(COC3=O)Oc3cc4c(cc32)OCO4)cc(OC)c1O (configuration not stated) , please.
OUTPUT: 0.121 µM

INPUT: Recorded TGI of NNC(=O)C1(NC(=O)c2ccccc2)C(c2ccccc2)C(c2ccccc2)=NN1c1ccccc1 (configuration not stated) , please.
OUTPUT: > 100 µM

INPUT: Recorded TGI of COc1cc2cc(C(=O)N3CC(COS(C)(=O)=O)c4ccc(O)cc43)[nH]c2c(OC)c1OC (configuration not stated) , please.
OUTPUT: < 0.0001 µM

INPUT: Recorded TGI of COc1ccc(-c2oc3cc(O)cc(O)c3c(=O)c2OC)cc1 , please.
OUTPUT: 62.9 µM

INPUT: Recorded TGI of Cn1cc(-c2ccc3nnc(Sc4ccc5ncccc5c4)n3n2)cn1 , please.
OUTPUT: > 100 µM

INPUT: Recorded TGI of O=S(=O)(NCn1ccc2ccccc21)c1ccccc1 , please.
OUTPUT: > 100 µM

INPUT: Recorded TGI of Cc1cc(N(CCC#N)CCC#N)ccc1N=Nc1ccc(Br)cc1 , please.
OUTPUT: > 79.3 µM

INPUT: Recorded TGI of O=C(c1ccccc1)c1c(NCC(O)CN2CCOCC2)n(Cc2ccccc2)c(=O)n(Cc2ccccc2)c1=O (configuration not stated) , please.
OUTPUT: 4.86 µM

###

- Tested on: HT29 colon
- assay_method_text: NCI tumour cell line growth inhibition, 48 h
Known TGI of a selection of compounds

Completed entries (count: 2):
smiles_notation | TGI
Nc1ccc(S(=O)(=O)Nc2nc3ccccc3nc2N2CCCCCC2)cc1 | > 100 µM
C=CCC1=C(C)C[C@@H]2CCC(=O)C=C12 | > 100 µM

INPUT: Recorded TGI of Cc1cc(C)c2c(c1)C(=O)/C(=C/c1ccccc1C(=O)O)C2 , please.
OUTPUT: > 100 µM

###

Known TGI of a selection of compounds
- Tested on: HS 578T breast
- assay_method_text: NCI tumour cell line growth inhibition, 48 h

INPUT: Recorded TGI of CCCSc1ccc2[nH]c(N3C(=O)/C(=C/c4ccccc4)N=C3c3ccccc3)cc2c1 , please.
OUTPUT: > 50 µM

INPUT: Recorded TGI of Cc1nc(Nc2ccccn2)sc1C(=O)/C=C/c1ccc(Cl)cc1 , please.
OUTPUT: > 100 µM

INPUT: Recorded TGI of Cn1cc(-c2ccc3nnc(Sc4ccc5ncccc5c4)n3n2)cn1 , please.
OUTPUT: > 72.1 µM

INPUT: Recorded TGI of CC(Oc1ccccc1Cl)C(=O)NN1C(=O)CSC1c1ccccc1 (centres undefined) , please.
OUTPUT: > 100 µM

###

- Tested on: TK-10 renal
- assay_method_text: NCI tumour cell line growth inhibition, 48 h
Known TGI of a selection of compounds

compound | subject_of_test | observed_property | measured_value
COc1cnc2c(c1)C(=O)c1c-2n(CCCNCCO)c(=O)c2ccncc12 | TK-10 renal | TGI | 19.3 µM
CC1=NN(C(=O)c2ccc(Cl)cc2)C(=O)/C1=C/c1ccccc1O | TK-10 renal | TGI | > 100 µM
CCCCCCCCCCCCCCCCCCNc1nc(=O)n(C2CC(O)C(COP(=O)(O)O)O2)cc1F (stereo not drawn) | TK-10 renal | TGI | > 100 µM
O=C1CC(c2[nH]nc3ccccc23)C(=O)N1c1ccccc1 (stereo not drawn) | TK-10 renal | TGI | > 100 µM
CC(C)(C)OC(=O)NCCCn1c2c(c3ccccc3c1=O)C(=O)c1ccccc1-2 | TK-10 renal | TGI | 63 µM

INPUT: What value of TGI on TK-10 renal does Cc1cc(C)c2c(c1)C(=O)/C(=C/c1ccccc1C(=O)O)C2 have?
OUTPUT: > 100 µM

INPUT: What value of TGI on TK-10 renal does CC(C)(C)CC(C)(C)c1cc(O)c(O)c(CN2CCCCC2)c1 have?
OUTPUT: 29.6 µM

INPUT: What value of TGI on TK-10 renal does C#Cc1c(C)c(/C=C/C(C)=C/C(=O)OC)n(C)c1C have?
OUTPUT: > 100 µM

INPUT: What value of TGI on TK-10 renal does Cc1c(C(=O)OCc2ccccc2)[n+](=O)c2cc(Cl)c(Cl)cc2n1[O-] have?
OUTPUT: 40.3 µM

INPUT: What value of TGI on TK-10 renal does Cc1c(-c2ccnc(N)n2)c2c(n1Cc1ccccc1)C(=O)c1ccccc1C2=O have?
OUTPUT: 66.8 µM

###

- Tested on: U251 CNS
- assay_method_text: NCI tumour cell line growth inhibition, 48 h
observed_property: TGI

INPUT: What value of TGI on U251 CNS does CSCCCNC(=O)c1ccc2c(c1)/C(=C/c1[nH]c(C)cc1C)C(=O)N2 have?
OUTPUT: > 100 µM

###

Known TGI of a selection of compounds
- System: SF-539 CNS
- assay_method_text: NCI tumour cell line growth inhibition, 48 h

Completed entries (count: 2):
compound | TGI
C1CC2CN(CCCN3CCOCC3)C(C1)O2 (stereo not drawn) | > 100 µM
CCOP(=O)(OCC)/C(=C/c1cccs1)CC(C)=O | > 100 µM

Switching to the query record.
INPUT: What value of TGI on SF-539 CNS does CC1=NN(C(=O)c2ccc(Cl)cc2)C(=O)/C1=C/c1ccccc1O have?
OUTPUT: > 100 µM

###

Known TGI of a selection of compounds
- Tested on: MDA-MB-435
- assay_method_text: NCI tumour cell line growth inhibition, 48 h
Your answer is read as µM, so omit the unit and give the number.

compound | subject_of_test | TGI / µM
Cc1c(-c2ccnc(N)n2)c2c(n1Cc1ccccc1)C(=O)c1ccccc1C2=O | MDA-MB-435 | 24.2
O=C1/C(=C/c2ccccc2)CN(C(=O)CCN2CCCC2)C/C1=C\c1ccccc1 | MDA-MB-435 | 3.24
C=C1CCC2(C#N)[C@H]3[C@H](CC[C@@H]2C)[C@@H](C)C[C@@H](CC(C)(C)NC(=O)CN2CCC2=O)[C@H]13 (stereo not given in full) | MDA-MB-435 | 23.8

Switching to the query record.
INPUT: Recorded TGI of Cc1c(C(=O)OCc2ccccc2)[n+](=O)c2cc(Cl)c(Cl)cc2n1[O-] , please.
OUTPUT: 42.4
